Tgt: EGFR in Baf3-L858R-T790M-C797S (Homo sapiens, UniProt P00533, C797S/L858R/T790M)
Sequence (P00533 25-1210 T790M/C797S/L858R): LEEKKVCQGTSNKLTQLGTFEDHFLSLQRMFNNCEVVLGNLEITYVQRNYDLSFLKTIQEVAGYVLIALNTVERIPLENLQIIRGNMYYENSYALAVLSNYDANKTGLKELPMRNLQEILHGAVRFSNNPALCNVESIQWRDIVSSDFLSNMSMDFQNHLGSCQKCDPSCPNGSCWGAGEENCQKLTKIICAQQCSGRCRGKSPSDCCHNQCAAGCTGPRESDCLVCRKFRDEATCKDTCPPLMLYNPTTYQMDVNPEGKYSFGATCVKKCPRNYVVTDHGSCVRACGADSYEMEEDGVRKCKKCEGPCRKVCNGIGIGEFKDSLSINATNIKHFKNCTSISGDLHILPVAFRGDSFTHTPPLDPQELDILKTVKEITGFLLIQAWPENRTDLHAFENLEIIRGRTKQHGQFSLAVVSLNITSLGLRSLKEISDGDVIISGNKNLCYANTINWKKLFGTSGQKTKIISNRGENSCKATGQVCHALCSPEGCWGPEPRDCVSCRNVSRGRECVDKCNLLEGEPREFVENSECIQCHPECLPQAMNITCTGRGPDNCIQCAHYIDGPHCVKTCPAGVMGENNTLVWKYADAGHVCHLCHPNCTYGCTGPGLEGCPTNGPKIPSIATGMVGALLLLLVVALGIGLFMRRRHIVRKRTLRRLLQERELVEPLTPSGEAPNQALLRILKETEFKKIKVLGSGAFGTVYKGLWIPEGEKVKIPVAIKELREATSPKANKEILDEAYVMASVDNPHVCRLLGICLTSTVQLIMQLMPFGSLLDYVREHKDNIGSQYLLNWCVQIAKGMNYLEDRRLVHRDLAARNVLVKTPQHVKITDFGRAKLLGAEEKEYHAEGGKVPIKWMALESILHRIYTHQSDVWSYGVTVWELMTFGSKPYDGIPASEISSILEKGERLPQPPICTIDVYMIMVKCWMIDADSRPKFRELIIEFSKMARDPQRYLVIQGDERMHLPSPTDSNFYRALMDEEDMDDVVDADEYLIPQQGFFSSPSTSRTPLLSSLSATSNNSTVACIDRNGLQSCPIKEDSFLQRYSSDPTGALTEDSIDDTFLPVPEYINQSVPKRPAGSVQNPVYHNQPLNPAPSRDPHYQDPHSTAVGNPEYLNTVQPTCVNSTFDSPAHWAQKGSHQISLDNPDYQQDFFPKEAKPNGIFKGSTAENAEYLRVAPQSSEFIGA
Assay method text: EGFR PROTAC HTRF experiment (total EGFR degradation)
Type: cell-based
Measurement parameters: read-out: Baf3-LTC DC50; Baf3-LTC, incubated 16 hours, HTRF total EGFR
Entries annotated with measured DC50

Molecule	Tgt	DC50
CCc1cc(Nc2ncc(Cl)c(Nc3ccc4nccnc4c3P(C)(C)=O)n2)c(OC)cc1N1CCN(C(=O)CN2CCC(c3cc4c(cc3F)c(N3CCC(=O)NC3=O)nn4C)C(F)(F)C2)CC1 (centres unmarked)	EGFR in Baf3-L858R-T790M-C797S (Homo sapiens, UniProt P00533, C797S/L858R/T790M)	< 0.01 µM
CCc1cc(Nc2ncc(Br)c(Nc3ccccc3P(C)(C)=O)n2)c(OC)cc1N1CC2(CCN(C(=O)CN3CCC(c4cc5c(cc4F)c(N4CCC(=O)NC4=O)nn5C)C(F)(F)C3)CC2)C1 (centres unmarked)	EGFR in Baf3-L858R-T790M-C797S (Homo sapiens, UniProt P00533, C797S/L858R/T790M)	< 0.01 µM
CCc1cc(Nc2ncc(Br)c(Nc3ccccc3P(C)(C)=O)n2)c(OC)cc1N1CCN(C(=O)CN2CCC(c3cc4c(cc3F)c(N3CCC(=O)NC3=O)nn4C)C(F)(F)C2)CC1 (centres unmarked)	EGFR in Baf3-L858R-T790M-C797S (Homo sapiens, UniProt P00533, C797S/L858R/T790M)	< 0.01 µM
CCc1cc(Nc2ncc(Cl)c(Nc3ccccc3C(=O)NC)n2)c(OC)cc1N1CCN(C(=O)CN2CCC(c3cc4c(cc3F)c(N3CCC(=O)NC3=O)nn4C)C(F)(F)C2)CC1 (centres unmarked)	EGFR in Baf3-L858R-T790M-C797S (Homo sapiens, UniProt P00533, C797S/L858R/T790M)	0.01 to 0.1 µM
CCc1cc(Nc2ncc(Cl)c(Nc3ccccc3C(=O)NC)n2)c(OC)cc1N1CCN(C(=O)CN2CCC(c3ccc4c(N5CCC(=O)NC5=O)nn(C)c4c3)C(F)(F)C2)CC1 (centres unmarked) [Comparative Example 1-1, reference compound]	EGFR in Baf3-L858R-T790M-C797S (Homo sapiens, UniProt P00533, C797S/L858R/T790M)	0.01 to 0.1 µM
